# refractive index per entry
assay: refractive index (Na D-line) (dimensionless); settings: 303.15 K; 101.33 kPa; Liquid
// no unit, no text: just the number

Hello, please tell me recorded refractive index for this one: CCCCO [butan-1-ol] 1.3955

Hello, please tell me recorded refractive index for this one: Clc1ccccc1Cl [1,2-dichlorobenzene] 1.5476

Supply refractive index value. Item: OCCCl [1-chloro-2-hydroxyethane] 1.438

###

conditions: 298.15 K; 101 kPa; Liquid
viscosity by entry:
Form entry: value (mPa·s) — number only.

Return value of viscosity for input CCOC(C)=O [ethyl acetate] , no commentary. 0.438

Please list viscosity recorded for the molecule CCOC(=O)CC(=O)OCC [diethyl 1,3-propanedioate] 1.941

Answer with reported viscosity of ClC=C(Cl)Cl [trichloroethene] 0.573

Look up viscosity of Clc1ccccc1Cl [1,2-dichlorobenzene] and report it. 1.324

Give the measured viscosity for CCCCO [butan-1-ol] 2.564

Give the reported viscosity for this molecule. OCCCl [1-chloro-2-hydroxyethane] 3.104

Complete the entry with viscosity for CC(=O)N(C)C [N,N-dimethylethanamide] 1.261
